// data source = patent US20070218475A1

# target_or_test_system: Shh signaling
# protocol_notes: Shh-LIGHT2 assay for Hh pathway activation (Gli-dependent luciferase reporter)
# Assay type: cell-based, mouse
# test_settings: Shh-LIGHT2 mouse cultured cell assay; read-out: IC50, inhibition of Shh signaling
property: IC50 (nM)

[[record]]
molecule = "CC1=C2CC3C(CC=C4C[C@@H](O)CCC43C)C2CCC12O[C@@H]1CC(C)CN(CCNC(=O)CCCCCNC(=O)CCC3=[N+]4C(=Cc5c(C)cc(C)n5[B-]4(F)F)C=C3)C1C2C (stereo partly shown)"
target_or_test_system = "Shh signaling"
numeric_value = 150


====

# target_or_test_system: Smo (Mus musculus, UniProt P56726)
# Sequence (P56726 33-793): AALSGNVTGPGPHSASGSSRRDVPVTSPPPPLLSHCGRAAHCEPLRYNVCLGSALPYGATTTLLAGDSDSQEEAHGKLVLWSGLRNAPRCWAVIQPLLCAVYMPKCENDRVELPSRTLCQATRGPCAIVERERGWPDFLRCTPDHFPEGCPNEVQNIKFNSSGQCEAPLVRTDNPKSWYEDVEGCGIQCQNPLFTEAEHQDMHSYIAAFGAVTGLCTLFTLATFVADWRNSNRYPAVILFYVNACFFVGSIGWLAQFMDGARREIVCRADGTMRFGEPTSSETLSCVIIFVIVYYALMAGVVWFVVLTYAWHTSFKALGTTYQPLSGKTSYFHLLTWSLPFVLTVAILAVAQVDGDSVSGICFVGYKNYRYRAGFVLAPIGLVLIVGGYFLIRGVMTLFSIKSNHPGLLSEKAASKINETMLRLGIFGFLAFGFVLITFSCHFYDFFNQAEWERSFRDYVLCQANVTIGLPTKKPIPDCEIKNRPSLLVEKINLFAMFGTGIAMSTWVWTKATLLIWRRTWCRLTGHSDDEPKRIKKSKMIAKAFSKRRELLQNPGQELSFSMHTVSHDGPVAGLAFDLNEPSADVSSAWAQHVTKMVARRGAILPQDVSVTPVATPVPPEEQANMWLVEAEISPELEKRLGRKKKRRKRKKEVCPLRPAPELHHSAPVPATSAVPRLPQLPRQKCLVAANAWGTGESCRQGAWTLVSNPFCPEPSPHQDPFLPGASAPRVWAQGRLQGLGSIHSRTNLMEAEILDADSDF
# protocol_notes: Fluorescence (BODIPY-cyclopamine) binding assay, Smo-expressing Cos-1 cells
# test_settings: competition of 5 nM BODIPY-cyclopamine binding, flow cytometry, Cos-1 cells; read-out: apparent dissociation constant (Kd), KAAD-cyclopamine/Smo complex
pKd: −log10 of the molar value.
property: pKd

[[record]]
substance_smiles = "CC1=C2C[C@H]3[C@@H](CC=C4CC(=O)CC[C@@]43C)[C@@H]2CC[C@]12O[C@@H]1C[C@H](C)CN(CCNC(=O)CCCCCNC(=O)CCc3ccccc3)[C@H]1[C@H]2C"
numeric_value = 7.64


====

# Test system: Shh signaling
# protocol_notes: Shh-LIGHT2 assay for Hh pathway activation (Gli-dependent luciferase reporter)
# Assay type: cell-based, mouse
# test_settings: Mus musculus, Shh Light2, read-out: IC50, inhibition of Shh signaling
property: IC50 (µM)

[[record]]
compound = "CC1=C2C[C@H]3[C@@H](CC=C4C[C@@H](O)CC[C@@]43C)[C@@H]2CC[C@]12O[C@@H]1C[C@H](C)CN[C@H]1[C@H]2C [cyclopamine, reference compound]"
target_or_test_system = "Shh signaling"
property = "IC50"
numeric_value = 0.3

